Tested on: L6-myotubes
Test Method Notes: Glucose uptake (3H-2-deoxyglucose) in differentiated L6-myotubes
Assay type: cell-based
Details: compound 1×10^−5 M, read-out: Biological example 1: glucose uptake, activity compared to that of isoproterenol
Structures can show the parent of a compound that is named as a salt.
Quantity Kind: Emax at 10 µM

Take a look at these entries with their results.
IN: I am curious: what Emax at 10 µM value has been reported for CO[C@H]1CC[C@H](C[C@H]2CC[C@H]([C@@H](O)c3cncc(F)c3)N2)CC1 [Example 12, dihydrochloride] ?
OUT: 25 to 50%

IN: Moving on to the next compound: O[C@H](c1cccc(F)c1)[C@H]1CC[C@@H](Cc2ccc(Cl)cc2)N1 [Example 25, hydrochloride]
OUT: > 75%

IN: Moving on to the next compound: O[C@H](c1cccc(F)c1)[C@H]1CC[C@H](Cc2ccc(Cl)cc2)N1 [Example 27, hydrochloride]
OUT: > 75%

IN: Moving on to the next compound: CS(=O)(=O)N[C@H]1CC[C@@H](C[C@@H]2CC[C@H]([C@@H](O)c3cccc(F)c3)N2)CC1 [Example 40, hydrochloride]
OUT: 50 to 75%

IN: Moving on to the next compound: CS(=O)(=O)N(Cc1ccccc1)[C@H]1CC[C@@H](C[C@@H]2CC[C@H]([C@@H](O)c3cccc(F)c3)N2)CC1 [Example 39, hydrochloride]
OUT: 50 to 75%

IN: Moving on to the next compound: CC(=O)N[C@H]1CC[C@H](C[C@@H]2CC[C@H]([C@@H](O)c3cccc(F)c3)N2)CC1 [Example 44, hydrochloride]
OUT: 50 to 75%

New cases:
IN: I am curious: what Emax at 10 µM value has been reported for COc1ccc(C[C@H]2CC[C@H]([C@H](O)c3cccc(F)c3)N2)cc1 ?
OUT: > 75%

IN: Moving on to the next compound: CO[C@H]1CC[C@H](C[C@@]2(C)CC[C@H]([C@H](O)c3cccc(F)c3)N2)CC1
OUT: > 75%

IN: Moving on to the next compound: CO[C@H]1CC[C@H](C[C@@H]2CC[C@H]([C@H](O)c3ccccc3F)N2)CC1.Cl [Example 5, hydrochloride]
OUT: > 75%
